Target: Cytochrome P450 2A5 (Mus musculus, UniProt P20852)
Sequence (P20852 whole entry): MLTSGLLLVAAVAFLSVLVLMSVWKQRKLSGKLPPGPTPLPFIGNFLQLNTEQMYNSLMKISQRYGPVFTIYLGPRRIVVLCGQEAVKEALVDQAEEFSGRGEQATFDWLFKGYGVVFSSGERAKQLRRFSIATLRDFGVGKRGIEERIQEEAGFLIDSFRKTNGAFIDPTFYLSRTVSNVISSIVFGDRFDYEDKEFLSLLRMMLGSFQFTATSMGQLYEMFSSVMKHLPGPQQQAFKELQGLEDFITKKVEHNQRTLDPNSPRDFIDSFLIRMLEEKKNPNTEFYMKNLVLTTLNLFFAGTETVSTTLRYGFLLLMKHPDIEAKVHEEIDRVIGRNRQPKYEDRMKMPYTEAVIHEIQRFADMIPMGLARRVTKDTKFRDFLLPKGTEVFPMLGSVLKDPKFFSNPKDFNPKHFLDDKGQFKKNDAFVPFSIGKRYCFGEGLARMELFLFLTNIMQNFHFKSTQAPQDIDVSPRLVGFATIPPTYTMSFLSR
pIC50: −log10 of the molar value.
// label = yes if pIC50 is not less than 5, otherwise no

1) Cc1ccc(CCN)cc1	yes
2) c1ccc2c(c1)ccc1ccccc12	no
3) Cc1cnc2ccccc2c1	no
4) Clc1ccc(Cl)cc1	yes
5) Cc1cc(C)c2ccccc2n1	no
6) Cc1ccc(C=O)cc1	no
7) O=Cc1ccccc1	yes
8) Clc1ccc(-c2ccccc2)cc1	no
9) Brc1ccc(Br)cc1	yes
10) Cc1cc2ccccc2cn1	yes
